# Subject of test: MARK4 (Homo sapiens)
# Construct: K562 cell pellets were thawed on ice and resuspended in cold Lysis buffer; endogenous in cells; host or cells: K562
# Sequence (Q96L34 1-752): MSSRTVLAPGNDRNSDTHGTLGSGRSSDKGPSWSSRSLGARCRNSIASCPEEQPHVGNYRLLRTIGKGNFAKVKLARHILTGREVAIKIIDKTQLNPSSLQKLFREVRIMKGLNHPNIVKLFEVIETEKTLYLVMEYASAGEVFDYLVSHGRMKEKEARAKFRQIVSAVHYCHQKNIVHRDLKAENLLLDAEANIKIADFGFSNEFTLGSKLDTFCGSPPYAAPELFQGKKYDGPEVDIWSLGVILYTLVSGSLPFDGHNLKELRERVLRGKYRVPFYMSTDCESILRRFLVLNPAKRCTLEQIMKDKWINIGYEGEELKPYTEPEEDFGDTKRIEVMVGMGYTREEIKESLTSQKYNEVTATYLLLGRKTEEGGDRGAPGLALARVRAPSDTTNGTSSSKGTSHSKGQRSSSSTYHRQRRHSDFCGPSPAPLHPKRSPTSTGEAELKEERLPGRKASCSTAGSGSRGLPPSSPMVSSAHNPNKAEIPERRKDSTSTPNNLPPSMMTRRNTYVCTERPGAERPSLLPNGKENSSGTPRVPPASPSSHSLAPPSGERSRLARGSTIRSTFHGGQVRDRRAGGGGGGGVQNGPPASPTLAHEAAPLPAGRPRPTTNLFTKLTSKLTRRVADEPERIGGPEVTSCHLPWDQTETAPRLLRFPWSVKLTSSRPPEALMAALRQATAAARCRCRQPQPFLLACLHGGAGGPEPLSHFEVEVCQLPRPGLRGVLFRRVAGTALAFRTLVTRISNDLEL
# Protocol: KAM-matrix competition in K562 lysate
# Type: binding
# Test conditions: read-out: RB50 (the source's name)
Result type: IC50 (µM)

>>> quantitative_result("N#CCc1ccc(Nc2nc(NCCCN)cc(Nc3cc(C4CC4)[nH]n3)n2)cc1")
0.604
